Biological target: Human coagulation factor (F)XI (Homo sapiens, UniProt P03951)
Construct: Enzyme Research Laboratories (FXIIa) HCXI-150 (FXI); HFXIIa (FXIIa)
Sequence (P03951 19-625): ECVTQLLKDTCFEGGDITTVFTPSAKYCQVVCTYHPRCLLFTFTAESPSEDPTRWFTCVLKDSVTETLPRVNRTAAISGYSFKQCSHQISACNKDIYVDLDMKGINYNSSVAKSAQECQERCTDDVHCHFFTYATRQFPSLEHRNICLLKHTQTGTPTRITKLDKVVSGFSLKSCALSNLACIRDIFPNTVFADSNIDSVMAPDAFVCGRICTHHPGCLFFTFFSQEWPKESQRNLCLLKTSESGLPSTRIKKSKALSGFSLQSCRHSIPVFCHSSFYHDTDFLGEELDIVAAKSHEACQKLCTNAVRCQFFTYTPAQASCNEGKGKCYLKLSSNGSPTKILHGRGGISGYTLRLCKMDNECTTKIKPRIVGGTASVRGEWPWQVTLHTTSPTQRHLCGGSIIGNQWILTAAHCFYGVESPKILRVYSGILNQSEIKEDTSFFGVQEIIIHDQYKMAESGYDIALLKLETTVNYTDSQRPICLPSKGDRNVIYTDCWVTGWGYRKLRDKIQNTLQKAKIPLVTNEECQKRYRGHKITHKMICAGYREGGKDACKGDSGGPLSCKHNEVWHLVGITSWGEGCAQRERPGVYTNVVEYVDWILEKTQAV
Experiment: Inhibition of FXIIa mediated activation of FXI (activation of human Factor XI to XIa by human Factor α-XIIa)
Settings: human FXI pre-incubated with compound 30 min at 22° C., activation by human FXIIa 60 min, z-GPR-AFC substrate fluorescence, 4 parameter logistic fit; read-out: Inhibition of FXIIa meditated activation of FXI
EXPERIMENTAL READOUT: EC50 (nM)

Would you please look over these solved cases?
> print(dat)
                                   molecule  experimental.readout  readout.units  recorded.measurement
1  Cc1c(COc2ccc3nc(C(=O)N4CCC(C)(O)C4)cc(C(=O)N4CCCCC4)c3c2)ccc2c1COC2=O (single isomer, unassigned) [Example 5b]                  EC50             nM                  38.8
2  N#Cc1ccc(COc2ccc3nc(C(=O)N4CCC(n5cccn5)CC4)cc(C(=O)N4CCCCC4)c3c2)c(F)c1                  EC50             nM                  32.9
3  O=C(c1cc(C(=O)N2CCCCC2)c2cc(OCc3ncc(C(F)(F)F)cc3Cl)ccc2n1)N1CCC(n2cccn2)CC1                  EC50             nM                  16.8
4  O=C(c1cc(C(=O)N2CCCCC2)c2cc(OCc3nc4ccccc4s3)ccc2n1)N1CCN(CC(F)(F)F)CC1                  EC50             nM                  19.1
5  O=C(c1cc(C(=O)N2CCCCC2)c2cc(OCc3nc4ccccc4s3)ccc2n1)N1CCN(CC(F)F)CC1                  EC50             nM                  34.7

[I] O=C(c1cc(C(=O)N2CCCCC2)c2cc(OCc3nc4ccccc4o3)ccc2n1)N1CCC(n2cccn2)CC1
[II] Cc1c(COc2ccc3nc(C(=O)N4CCC(C#N)(n5cccn5)CC4)cc(C(=O)N4CCCCC4)c3c2)ccc2c1COC2=O
Exercise: Consider entries I and II . Which has the numerically lower EC50? State the label of the item chosen.
Solution: II

###

Molecular target: Human coagulation factor (F)XI (Homo sapiens)
Construct: Enzyme Research Laboratories (FXIIa) HCXI-150 (FXI); HFXIIa (FXIIa)
Experiment: Inhibition of FXIIa mediated activation of FXI (activation of human Factor XI to XIa by human Factor α-XIIa)
Conditions: human FXI pre-incubated with compound 30 min at 22° C., activation by human FXIIa 60 min, z-GPR-AFC substrate fluorescence, 4 parameter logistic fit; read-out: Inhibition of FXIIa meditated activation of FXI
EXPERIMENTAL READOUT: EC50 (µM)

Would you please look over these solved cases?
> print(dat)
                                   compound  experimental.readout  recorded.measurement
1  O=C(c1cc(C(=O)N2CCCCC2)c2cc(OCc3ccc(Cl)cc3)ccc2n1)N1CCC(n2cccn2)CC1 [Example 21]                  EC50                0.0343
2  N#CC1(c2ccccn2)CCN(C(=O)c2cc(C(=O)N3CCCCC3)c3cc(OCc4nc5ccccc5s4)ccc3n2)CC1 [Example 57]                  EC50                0.0218
3  N#CC1(n2cccn2)CCN(C(=O)c2cc(C(=O)N3CCCCC3)c3cc(OCc4ncc(C(F)(F)F)cc4Cl)ccc3n2)CC1 [Example 2]                  EC50                0.0322
4  N#CC1(c2ccccc2)CCN(C(=O)c2cc(C(=O)N3CCCCC3)c3cc(OCc4noc5ccccc45)ccc3n2)CC1 [Example 51]                  EC50                0.0405

[A] O=C(c1cc(C(=O)N2CCCCC2)c2cc(OCc3nc4ccccc4s3)ccc2n1)N1CCC(n2cccn2)CC1 [Example 26]
[B] N#CC1(c2ccccc2)CCN(C(=O)c2cc(C(=O)N3CCCCC3)c3cc(OCc4ccccn4)ccc3n2)CC1 [Example 48]
[C] CC1(O)CCN(C(=O)c2cc(C(=O)N3CCCCC3)c3cc(OCc4ccc5c(c4Cl)COC5=O)ccc3n2)C1 (racemic) [Example 4]
[D] CN(C(=O)c1cc(C(=O)N2CCC(n3cccn3)CC2)nc2ccc(OCc3nc4ccccc4s3)cc12)C1CCC1 [Example 55]
Exercise: Sort these compounds on EC50 so the largest reading comes first. Sort the labels as requested; that list is your answer.
Solution: D, B, A, C
(D: 0.366 µM, B: 0.0449 µM, A: 0.0289 µM, C: 0.0096 µM)

###

Biological target: Human coagulation factor (F)XI (Homo sapiens, UniProt P03951)
Construct: Enzyme Research Laboratories (FXIIa) HCXI-150 (FXI); HFXIIa (FXIIa)
Assay: Inhibition of FXIIa mediated activation of FXI (activation of human Factor XI to XIa by human Factor α-XIIa)
Conditions: human FXI pre-incubated with compound 30 min at 22° C., activation by human FXIIa 60 min, z-GPR-AFC substrate fluorescence, 4 parameter logistic fit; read-out: Inhibition of FXIIa meditated activation of FXI
EXPERIMENTAL READOUT: EC50 (nM)

Would you please look over these solved cases?
> print(dat)
                                   compound                                    system  experimental.readout  recorded.measurement
1  O=C(c1cc(C(=O)N2CCCCC2)c2cc(OCc3ccc4nonc4c3)ccc2n1)N1CCC(n2cccn2)CC1  Human coagulation factor (F)XI (Homo sapiens, UniProt P03951)                  EC50                  14.7
2  O=C(c1cc(C(=O)N2CCCCC2)c2cc(OCc3nc4ccccc4s3)ccc2n1)N1CCC(c2cc[nH]n2)CC1  Human coagulation factor (F)XI (Homo sapiens, UniProt P03951)                  EC50                    31
3  N#CC1(c2ccccc2)CCN(C(=O)c2cc(C(=O)N3CCCCC3)c3cc(OCc4nc5ccccc5s4)ccc3n2)CC1 [Example 49]  Human coagulation factor (F)XI (Homo sapiens, UniProt P03951)                  EC50                    15

[A] N#CC1(c2ccccc2)CCN(C(=O)c2cc(C(=O)N3CCCCC3)c3cc(OCc4ccc(OC(F)F)cc4)ccc3n2)CC1
[B] N#CC1(c2ccccc2)CCN(C(=O)c2cc(C(=O)N3CCCCC3)c3cc(OCc4cn5ccccc5n4)ccc3n2)CC1
Exercise: Consider entries A and B . Which has the numerically lower EC50? State the label of the item chosen.
Solution: B

###

Molecular target: Human coagulation factor (F)XI (Homo sapiens, UniProt P03951)
Construct: Enzyme Research Laboratories (FXIIa) HCXI-150 (FXI); HFXIIa (FXIIa)
Test: Inhibition of FXIIa mediated activation of FXI (activation of human Factor XI to XIa by human Factor α-XIIa)
Details: human FXI pre-incubated with compound 30 min at 22° C., activation by human FXIIa 60 min, z-GPR-AFC substrate fluorescence, 4 parameter logistic fit; read-out: Inhibition of FXIIa meditated activation of FXI
pEC50: −log10 of the molar value.
EXPERIMENTAL READOUT: pEC50

Would you please look over these solved cases?
> print(dat)
                               input.smiles  recorded.measurement
1  N#CC1(c2ccccc2)CCN(C(=O)c2cc(C(=O)N3CCCCC3)c3cc(OCc4ccc([N+](=O)[O-])cc4)ccc3n2)CC1                  7.32
2  N#CC1(c2ccccc2)CCN(C(=O)c2cc(C(=O)N3CCCCC3)c3cc(OCc4ccc(OC(F)(F)F)cc4)ccc3n2)CC1                  7.42
3  COc1ccc(COc2ccc3nc(C(=O)N4CCC(C#N)(c5ccccc5)CC4)cc(C(=O)N4CCCCC4)c3c2)cc1F                  7.50
4  O=C(c1cc(C(=O)N2CCCCC2)c2cc(OCc3nc4ccccc4s3)ccc2n1)N1CCCN(Cc2nccs2)CC1                  7.31
5  Cn1c(COc2ccc3nc(C(=O)N4CCC(n5cccn5)CC4)cc(C(=O)N4CCCCC4)c3c2)nc2ccccc21                  7.54

[a] O=C(c1cc(C(=O)N2CCCCC2)c2cc(OCc3nc4ccccc4s3)ccc2n1)N1CCC(n2ccnn2)CC1
[b] Cc1c(COc2ccc3nc(C(=O)N4CCC(n5cccn5)CC4)cc(C(=O)N4CCCCC4)c3c2)ccc2c1COC2=O
Exercise: Given the listed records, identify the one among a and b with higher pEC50. State the label of the item chosen.
Solution: b
(b: 7.66, a: 7.38)

Where do the numbers come from? From patent US12304899B2.
